Target: recombinant human Lp-PLA2 (Homo sapiens)
Assay: (1b) hrThioPAF assay, recombinant human Lp-PLA2
Format: biochemical
Conditions: Examples 266-412 were tested here, one experiment or average of multiple experiments, read-out: rhLp-PLA2 (pIC50) (converted)
Below is a list of entries, each paired with its recorded IC50 value.

Here's what some known entries look like.
O=c1nc(OCc2cc(F)c(Oc3cncc(C(F)(F)F)c3)c(F)c2)cc2n1CC1(CCN(Cc3ccccc3)CC1)N2    ≤ 0.001 µM
N#Cc1cc(COc2cc3n(c(=O)n2)CC2CN(C(=O)C4CCC4)CCN32)ccc1F (stereo not shown)    ≤ 10 µM
CCCC(=O)N1CCN2c3cc(OCc4ccc(F)c(C#N)c4)nc(=O)n3CC2C1 (stereo not shown) [Example E291, 2,2,2-trifluoroacetate]    ≤ 10 µM

Q: Retrieve IC50 measured for O=c1nc(OCc2ccc(Oc3ccnc(C(F)(F)F)c3)c(F)c2)cc2n1CC1CNCCN21 (stereo not shown) and print it.
Ans: ≤ 0.1 µM

----------
Target: Lp-PLA2 in human plasma (Homo sapiens)
Construct: from tissue; host or cells: pooled human plasma
Sequence (Q13093 22-441): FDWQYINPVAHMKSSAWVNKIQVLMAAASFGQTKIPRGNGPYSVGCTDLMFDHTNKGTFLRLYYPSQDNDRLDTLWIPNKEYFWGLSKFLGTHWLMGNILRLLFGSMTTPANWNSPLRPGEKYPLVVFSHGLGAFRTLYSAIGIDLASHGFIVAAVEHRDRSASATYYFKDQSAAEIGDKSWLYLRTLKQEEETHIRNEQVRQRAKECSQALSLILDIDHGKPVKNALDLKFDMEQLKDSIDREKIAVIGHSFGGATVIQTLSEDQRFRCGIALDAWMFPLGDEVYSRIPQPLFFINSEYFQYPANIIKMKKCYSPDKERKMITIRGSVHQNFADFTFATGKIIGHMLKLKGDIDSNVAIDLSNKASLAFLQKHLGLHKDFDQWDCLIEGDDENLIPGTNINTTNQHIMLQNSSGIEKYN
Experiment: (3b) Lp-PLA2 human plasma alternative Thio-PAF assay
Format: biochemical
Details: (3b) alternative Thio-PAF assay, pooled human plasma; Examples of 266-412 were tested here; read-out: pIC50 in the Lp-PLA2 human plasma assay (converted)
Structures can show the parent of a compound that is named as a salt.
Collected IC50 values appear next to each entry.

O=c1nc(OCc2ccc(F)c(F)c2)cc2n1CC1CN(CC(F)(F)F)CCN21 (stereo not shown) [Example E338, trifluoroacetate]    ≤ 100 nM
N#Cc1cc(COc2cc3n(c(=O)n2)CC2CN(C(=O)C4(N)CC4)CCN32)ccc1F (stereo not shown) [Example E297, 2,2,2-trifluoroacetate]    ≤ 100 nM
O=C([C@H]1CCCN1)N1CCN2c3cc(OCc4ccc(F)c(F)c4)nc(=O)n3CC2C1 (stereo partly shown) [Example E343]    ≤ 100 nM

Now, please, on to the next compound.
Q: Give IC50 for the following compound: CN(C)C(=O)N1CCN2c3cc(OCc4ccc(F)c(F)c4)nc(=O)n3CC2C1 (stereo not shown) [Example E301]
Ans: ≤ 100 nM

----------
Target: Lp-PLA2 in human plasma (Homo sapiens, UniProt Q13093)
Construct: from tissue; host or cells: pooled human plasma
Sequence (Q13093 22-441): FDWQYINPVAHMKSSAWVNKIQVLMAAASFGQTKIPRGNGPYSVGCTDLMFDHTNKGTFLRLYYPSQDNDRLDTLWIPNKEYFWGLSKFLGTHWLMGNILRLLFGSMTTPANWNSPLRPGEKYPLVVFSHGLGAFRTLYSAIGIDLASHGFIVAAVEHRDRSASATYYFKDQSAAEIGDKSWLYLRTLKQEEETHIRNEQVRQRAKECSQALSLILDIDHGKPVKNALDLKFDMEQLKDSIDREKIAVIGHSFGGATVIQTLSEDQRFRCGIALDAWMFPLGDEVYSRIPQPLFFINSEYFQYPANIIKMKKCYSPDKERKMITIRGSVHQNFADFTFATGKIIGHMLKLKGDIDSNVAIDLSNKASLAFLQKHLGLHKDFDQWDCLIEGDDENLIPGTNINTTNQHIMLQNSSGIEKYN
Experiment: (3a) Lp-PLA2 human plasma Thio-PAF assay
Assay type: biochemical
Details: (3a) Thio-PAF assay, pooled human plasma; Examples 1-265 and 413-430 were tested here; read-out: pIC50 in the Lp-PLA2 human plasma assay (converted)
Endpoint label: IC50

// worked examples, IC50 included
O=c1nc(OCc2ccc(Oc3ccnc(C(F)(F)F)c3)c(F)c2)cc2n1CC1CCCCN21 (centres unmarked) [Example E44]    ≤ 100 nM
O=c1nc(OCc2cc(F)cc(F)c2)cc2n1C[C@@H]1COCN21    ≤ 10000 nM

Q: # return recorded IC50 for entry Cn1cc(Oc2c(F)cc(COc3cc4n(c(=O)n3)C[C@@H]3COCCN43)cc2F)cn1
Ans: ≤ 10000 nM

Q: Specify reported IC50 for the compound shown: O=c1nc(OCc2ccc(Oc3ccc(C(F)(F)F)nc3)c(F)c2)cc2n1CC1CCCCN21 (centres unmarked) [Example E38]
Ans: ≤ 100 nM

Q: Determine from records and report IC50 for Cn1cc(Oc2c(F)cc(COc3cc4n(c(=O)n3)CC3OCCCN43)cc2F)cn1 (centres unmarked)
Ans: ≤ 10000 nM

Q: Identify IC50 associated with the compound O=c1nc(OCc2cc(F)cc(F)c2)cc2n1C[C@H]1COCN21
Ans: ≤ 10000 nM

Q: # return recorded IC50 for input O=c1nc(OCc2ccc(F)cc2F)cc2n1C[C@@H]1CCCCN21
Ans: ≤ 10000 nM

Q: Check the records and state IC50 for O=c1nc(CCc2cccc(F)c2)cc2n1C[C@H]1COCCN21
Ans: ≤ 10000 nM

Q: Check the records and state IC50 for O=c1nc(OCc2cc(F)c(F)cc2F)cc2n1C[C@@H]1CCCCN21
Ans: ≤ 10000 nM

Q: Annotate the compound O=c1nc(OCc2cc(F)c(Oc3ccc(C(F)(F)F)nc3)c(F)c2)cc2n1CC1CCCN21 (centres unmarked) with its measured IC50.
Ans: ≤ 100 nM

----------
Molecular target: Lp-PLA2 in human plasma (Homo sapiens)
Construct: from tissue; host or cells: pooled human plasma
Sequence (Q13093 22-441): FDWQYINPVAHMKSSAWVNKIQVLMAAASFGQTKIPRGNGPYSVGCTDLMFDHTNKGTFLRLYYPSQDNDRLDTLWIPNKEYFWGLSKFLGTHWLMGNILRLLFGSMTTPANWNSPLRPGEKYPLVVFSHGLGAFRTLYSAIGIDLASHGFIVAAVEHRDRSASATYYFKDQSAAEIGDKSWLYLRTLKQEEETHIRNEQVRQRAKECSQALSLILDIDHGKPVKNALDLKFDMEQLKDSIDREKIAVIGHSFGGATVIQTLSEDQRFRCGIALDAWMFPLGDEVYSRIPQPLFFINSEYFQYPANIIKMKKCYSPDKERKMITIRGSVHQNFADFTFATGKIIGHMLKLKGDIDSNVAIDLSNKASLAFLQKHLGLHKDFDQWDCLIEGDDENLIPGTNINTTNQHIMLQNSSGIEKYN
Assay: (3a) Lp-PLA2 human plasma Thio-PAF assay
Format: biochemical
Settings: (3a) Thio-PAF assay, pooled human plasma; Examples 1-265 and 413-430 were tested here; read-out: pIC50 in the Lp-PLA2 human plasma assay (converted)
// values below are reported IC50

Worked cases, answers included:
Cn1cc(Oc2c(F)cc(COc3cc4n(c(=O)n3)C[C@H]3CCOCN43)cc2F)cn1 [Example E137]    ≤ 10 µM
O=c1nc(OCc2cc(F)c(Oc3ccnc(C(F)(F)F)c3)c(F)c2)cc2n1CC1CCCCN21 (stereo not drawn) [Example E41]    ≤ 0.1 µM
Cn1cc(Oc2c(F)cc(COc3cc4n(c(=O)n3)C[C@@H]3COCN43)cc2F)cn1 [Example E144]    ≤ 10 µM
CN1c2cc(OCc3cc(F)c(F)cc3F)nc(=O)n2CC12CCCC2 [Example 415]    ≤ 10 µM
O=c1nc(OCc2cc(F)c(F)c(F)c2)cc2n1C[C@@H]1COCN21 [Example E153]    ≤ 10 µM

Next molecule, IC50 to be filled in.
Q: Complete the entry with IC50 for N#Cc1ccc(CCOc2cc3n(c(=O)n2)C[C@H]2COCN32)cc1 [Example E191]
Ans: ≤ 10 µM

----------
Biological target: Lp-PLA2 in human plasma (Homo sapiens, UniProt Q13093)
Construct: from tissue; host or cells: pooled human plasma
Sequence (Q13093 22-441): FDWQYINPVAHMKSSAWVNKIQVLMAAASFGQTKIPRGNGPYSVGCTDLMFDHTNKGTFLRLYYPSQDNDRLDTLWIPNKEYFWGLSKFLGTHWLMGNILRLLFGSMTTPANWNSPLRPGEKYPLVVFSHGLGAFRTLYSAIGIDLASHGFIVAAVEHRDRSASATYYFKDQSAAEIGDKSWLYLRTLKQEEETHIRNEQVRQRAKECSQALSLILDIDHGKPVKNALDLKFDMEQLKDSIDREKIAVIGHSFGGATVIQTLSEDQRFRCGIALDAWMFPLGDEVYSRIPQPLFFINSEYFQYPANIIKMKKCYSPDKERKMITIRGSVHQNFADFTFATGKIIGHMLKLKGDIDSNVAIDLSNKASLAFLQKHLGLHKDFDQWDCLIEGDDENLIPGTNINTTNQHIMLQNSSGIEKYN
Test: (3a) Lp-PLA2 human plasma Thio-PAF assay
Format: biochemical
Conditions: (3a) Thio-PAF assay, pooled human plasma; Examples 1-265 and 413-430 were tested here; read-out: pIC50 in the Lp-PLA2 human plasma assay (converted)
Endpoint label: IC50

Below, each entry is followed by its recorded IC50 result.
O=c1nc(OCc2cccc(F)c2)cc2n1C[C@H]1COCCN21    ≤ 0.1 µM
Cc1cc(Oc2c(F)cc(COc3cc4n(c(=O)n3)C[C@@H]3COCN43)cc2F)ccn1    ≤ 10 µM
CN1c2cc(OCc3cccc(F)c3)nc(=O)n2CC12CCCCC2    ≤ 10 µM
O=c1nc(OCc2ccc(F)cc2F)cc2n1C[C@H]1CCCCN21    ≤ 10 µM
O=c1nc(OCc2cc(F)c(F)cc2F)cc2n1C[C@@H]1COCCN21    ≤ 10 µM

Q: Report measured IC50; entry is O=c1nc(OCc2cc(F)c(F)c(F)c2)cc2n1C[C@H]1COCN21
Ans: ≤ 0.1 µM

Q: // Input: Cn1cc(Oc2c(F)cc(COc3cc4n(c(=O)n3)C[C@@H]3CCCCN43)cc2F)cn1 . Output its IC50 only.
Ans: ≤ 10 µM

Q: Fill in IC50 for record Cc1ncc(Oc2c(F)cc(COc3cc4n(c(=O)n3)C[C@@H]3COCN43)cc2F)cn1
Ans: ≤ 10 µM

Q: Query IC50 for O=c1nc(OCCc2cccc(F)c2)cc2n1C[C@H]1CCCN21
Ans: ≤ 10 µM

Q: Indicate its recorded IC50; the compound in question is O=c1nc(CCc2cccc(F)c2)cc2n1C[C@@H]1COCCN21
Ans: ≤ 10 µM

Q: Give reported IC50 value for Cc1ncc(Oc2c(F)cc(COc3cc4n(c(=O)n3)C[C@H]3COCN43)cc2F)cn1
Ans: ≤ 0.1 µM

Q: State its IC50 for this compound: O=c1nc(OCc2cc(F)c(OC3(CCF)CC3)c(F)c2)cc2n1C[C@@H]1COCN21
Ans: ≤ 10 µM

Q: Assign IC50 to the following record: O=c1nc(OCc2cccc(F)c2F)cc2n1C[C@@H]1COCN21
Ans: ≤ 10 µM

Q: Using known records, supply IC50 for O=c1nc(OCc2cc(F)c(F)cc2F)cc2n1C[C@@H]1COCN21
Ans: ≤ 10 µM

Q: Give IC50 for O=c1nc(OCc2cc(F)c(OC3CCC(F)(F)C3)c(F)c2)cc2n1CC1CCCN21 (stereo not shown)
Ans: ≤ 10 µM

Q: Read off the recorded IC50 for CN1c2cc(OCc3cc(F)c(F)c(F)c3)nc(=O)n2CC12CCCC2
Ans: ≤ 0.1 µM

Q: // Input: O=c1nc(OCc2ccc(CN3CCCC(F)(F)C3)c(F)c2)cc2n1C[C@@H]1CCCCN21 . Output its IC50 only.
Ans: ≤ 10 µM

Q: State, in one line, measured IC50 of CN1c2cc(OCc3cccc(F)c3)nc(=O)n2CC12CCC2
Ans: ≤ 10 µM

Q: # return recorded IC50 for entry N#Cc1cc(COc2cc3n(c(=O)n2)CC2CCCN32)ccc1Oc1cccc(F)c1 (stereo not shown)
Ans: ≤ 0.1 µM

Q: Check the records and state IC50 for O=c1nc(OCc2cc(F)cc(F)c2)cc2n1C[C@@H]1CCCN21
Ans: ≤ 10 µM

Q: Retrieve IC50 measured for O=c1nc(OCc2cc(F)cc(F)c2)cc2n1C[C@@H]1CCOCN21 and print it.
Ans: ≤ 10 µM

Q: Identify measured IC50 corresponding to N#Cc1cc(F)cc(COc2cc3n(c(=O)n2)CC2CCCCN32)c1 (stereo not shown)
Ans: ≤ 10 µM

The measurements presented in this section are drawn from patent US11999746B2.
